- study system: T1, SURP1 (res. 48–110) of human SF3A1, N63Q mutant (human, UniProt Q15459 48-110, N63Q)
- T1 sequence: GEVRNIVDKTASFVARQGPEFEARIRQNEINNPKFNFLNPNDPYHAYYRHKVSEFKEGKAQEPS
- experiment: BLI
Ends that are not written are not given here.
parameter measured: pKd
# reply with the number alone; pKd is -log10 of concentration in mol/L

# pKd (binder: QRPGDPQSAQDKARMDKEYLSLMAELGEAPVPA (peptide, UniProt Q15637 295-327, looked up, also: biotin (position not given here)) [biotin-tagged SF1 S1BRp (res. 295–327)] ) is 3.86

Data credit: paper PMC9514218
